# Run description: The drug is tested on the gut metagenome community of T-05 with ENA study accession number: PRJEB31790 for biotransformation under microaerobic condition. The drug concentrations were measured over 7 timepoints collected between 0 and 12 hours of incubation by liquid-chromatography-coupled mass spectrometry (LC–MS)
# Assay type: ADME
# Design: dose 5 uM, timepoint 0, 0.75, 1.5, 3, 6, 9, 12 hours
# Experimental context: 5 µM

Molecule	Bacterial Biotransformation
C[C@]12C=CC(=O)C=C1CC[C@@H]1[C@@H]2[C@@H](O)C[C@@]2(C)[C@H]1CC[C@]2(O)C(=O)CO [PREDNISOLONE]	Compound NOT metabolized
C[C@]12CCC(=O)C=C1CC[C@@H]1[C@@H]2[C@@H](O)C[C@@]2(C)[C@H]1CC[C@]2(O)C(=O)CO [HYDROCORTISONE]	Compound metabolized
CC(C)NCC(O)COc1ccc(CC(N)=O)cc1 (centres undefined) [ATENOLOL]	Compound NOT metabolized
C[C@]12C=CC(=O)C=C1CC[C@@H]1[C@@H]2C(=O)C[C@@]2(C)[C@H]1CC[C@]2(O)C(=O)CO [PREDNISONE]	Compound metabolized
COc1c(C)c2c(c(O)c1C/C=C(\C)CCC(=O)O)C(=O)OC2 [MYCOPHENOLIC ACID]	Compound metabolized
CCCC1O[C@@H]2C[C@H]3[C@@H]4CCC5=CC(=O)C=C[C@]5(C)[C@H]4[C@@H](O)C[C@]3(C)[C@]2(C(=O)CO)O1 (some centres undefined) [BUDESONIDE]	Compound NOT metabolized
CN(Cc1cnc2nc(N)nc(N)c2n1)c1ccc(C(=O)N[C@@H](CCC(=O)O)C(=O)O)cc1 [METHOTREXATE]	Compound metabolized
C[C@@H]1C[C@H]2[C@@H]3CCC4=CC(=O)C=C[C@]4(C)[C@@]3(F)[C@@H](O)C[C@]2(C)[C@@]1(O)C(=O)CO [DEXAMETHASONE]	Compound NOT metabolized
C[C@]12CCC(=O)C=C1CC[C@@H]1[C@@H]2C(=O)C[C@@]2(C)[C@H]1CC[C@]2(O)C(=O)CO [CORTISONE]	Compound metabolized
CCOc1nc2cccc(C(=O)O)c2n1Cc1ccc(-c2ccccc2-c2nnn[nH]2)cc1	Compound NOT metabolized
CNC(=C[N+](=O)[O-])NCCSCc1ccc(CN(C)C)o1 [RANITIDINE]	Compound NOT metabolized
CCOC(=O)[C@H](CCc1ccccc1)N[C@@H](C)C(=O)N1[C@H](C(=O)O)C[C@@H]2CCC[C@@H]21	Compound NOT metabolized
COc1ccc([C@@H]2Sc3ccccc3N(CCN(C)C)C(=O)[C@@H]2OC(C)=O)cc1 [DILTIAZEM]	Compound metabolized
C[C@@H](NCCCc1cccc(C(F)(F)F)c1)c1cccc2ccccc12	Compound NOT metabolized
CCC(C)(C)C(=O)O[C@H]1C[C@@H](C)C=C2C=C[C@H](C)[C@H](CC[C@@H]3C[C@@H](O)CC(=O)O3)[C@H]21 [SIMVASTATIN]	Compound NOT metabolized
CO[C@H]1C[C@@H]2CC[C@@H](C)[C@@](O)(O2)C(=O)C(=O)N2CCCC[C@H]2C(=O)O[C@H]([C@H](C)C[C@@H]2CC[C@@H](OCCO)[C@H](OC)C2)CC(=O)[C@H](C)/C=C(\C)[C@@H](O)[C@@H](OC)C(=O)[C@H](C)C[C@H](C)/C=C/C=C/C=C/1C [EVEROLIMUS]	Compound NOT metabolized
Cn1cnc([N+](=O)[O-])c1Sc1ncnc2nc[nH]c12 [AZATHIOPRINE]	Compound NOT metabolized
CO[C@H]1C[C@@H]2CC[C@@H](C)[C@@](O)(O2)C(=O)C(=O)N2CCCC[C@H]2C(=O)O[C@H]([C@H](C)C[C@@H]2CC[C@@H](O)[C@H](OC)C2)CC(=O)[C@H](C)/C=C(\C)[C@@H](O)[C@@H](OC)C(=O)[C@H](C)C[C@H](C)/C=C/C=C/C=C/1C [SIROLIMUS]	Compound NOT metabolized
C=CC[C@@H]1/C=C(\C)C[C@H](C)C[C@H](OC)[C@H]2O[C@@](O)(C(=O)C(=O)N3CCCC[C@H]3C(=O)O[C@H](/C(C)=C/[C@@H]3CC[C@@H](O)[C@H](OC)C3)[C@H](C)[C@@H](O)CC1=O)[C@H](C)C[C@@H]2OC.O [TACROLIMUS]	Compound metabolized
C[C@H]1C[C@@H]2[C@H]([C@@H](O)C[C@@]3(C)[C@H]2CC[C@]3(O)C(=O)CO)[C@@]2(C)C=CC(=O)C=C12 [METHYLPREDNISOLONE]	Compound metabolized
COc1c(C)c2c(c(O)c1C/C=C(\C)CCC(=O)OCCN1CCOCC1)C(=O)OC2 [MYCOPHENOLATE MOFETIL]	Compound metabolized
CCOC(=O)C1=C(COCCN)NC(C)=C(C(=O)OC)C1c1ccccc1Cl (centres undefined) [AMLODIPINE]	Compound NOT metabolized
C[C@H]1C[C@H]2[C@@H]3CCC4=CC(=O)C=C[C@]4(C)[C@@]3(F)[C@@H](O)C[C@]2(C)[C@@]1(O)C(=O)CO [BETAMETHASONE]	Compound NOT metabolized
NS(=O)(=O)c1cc(C(=O)O)c(NCc2ccco2)cc1Cl [FUROSEMIDE]	Compound NOT metabolized
